System: Beta-1,3-glucan synthase (Candida albicans, UniProt O13428) | Read-out: IC50
Sequence (O13428 whole entry): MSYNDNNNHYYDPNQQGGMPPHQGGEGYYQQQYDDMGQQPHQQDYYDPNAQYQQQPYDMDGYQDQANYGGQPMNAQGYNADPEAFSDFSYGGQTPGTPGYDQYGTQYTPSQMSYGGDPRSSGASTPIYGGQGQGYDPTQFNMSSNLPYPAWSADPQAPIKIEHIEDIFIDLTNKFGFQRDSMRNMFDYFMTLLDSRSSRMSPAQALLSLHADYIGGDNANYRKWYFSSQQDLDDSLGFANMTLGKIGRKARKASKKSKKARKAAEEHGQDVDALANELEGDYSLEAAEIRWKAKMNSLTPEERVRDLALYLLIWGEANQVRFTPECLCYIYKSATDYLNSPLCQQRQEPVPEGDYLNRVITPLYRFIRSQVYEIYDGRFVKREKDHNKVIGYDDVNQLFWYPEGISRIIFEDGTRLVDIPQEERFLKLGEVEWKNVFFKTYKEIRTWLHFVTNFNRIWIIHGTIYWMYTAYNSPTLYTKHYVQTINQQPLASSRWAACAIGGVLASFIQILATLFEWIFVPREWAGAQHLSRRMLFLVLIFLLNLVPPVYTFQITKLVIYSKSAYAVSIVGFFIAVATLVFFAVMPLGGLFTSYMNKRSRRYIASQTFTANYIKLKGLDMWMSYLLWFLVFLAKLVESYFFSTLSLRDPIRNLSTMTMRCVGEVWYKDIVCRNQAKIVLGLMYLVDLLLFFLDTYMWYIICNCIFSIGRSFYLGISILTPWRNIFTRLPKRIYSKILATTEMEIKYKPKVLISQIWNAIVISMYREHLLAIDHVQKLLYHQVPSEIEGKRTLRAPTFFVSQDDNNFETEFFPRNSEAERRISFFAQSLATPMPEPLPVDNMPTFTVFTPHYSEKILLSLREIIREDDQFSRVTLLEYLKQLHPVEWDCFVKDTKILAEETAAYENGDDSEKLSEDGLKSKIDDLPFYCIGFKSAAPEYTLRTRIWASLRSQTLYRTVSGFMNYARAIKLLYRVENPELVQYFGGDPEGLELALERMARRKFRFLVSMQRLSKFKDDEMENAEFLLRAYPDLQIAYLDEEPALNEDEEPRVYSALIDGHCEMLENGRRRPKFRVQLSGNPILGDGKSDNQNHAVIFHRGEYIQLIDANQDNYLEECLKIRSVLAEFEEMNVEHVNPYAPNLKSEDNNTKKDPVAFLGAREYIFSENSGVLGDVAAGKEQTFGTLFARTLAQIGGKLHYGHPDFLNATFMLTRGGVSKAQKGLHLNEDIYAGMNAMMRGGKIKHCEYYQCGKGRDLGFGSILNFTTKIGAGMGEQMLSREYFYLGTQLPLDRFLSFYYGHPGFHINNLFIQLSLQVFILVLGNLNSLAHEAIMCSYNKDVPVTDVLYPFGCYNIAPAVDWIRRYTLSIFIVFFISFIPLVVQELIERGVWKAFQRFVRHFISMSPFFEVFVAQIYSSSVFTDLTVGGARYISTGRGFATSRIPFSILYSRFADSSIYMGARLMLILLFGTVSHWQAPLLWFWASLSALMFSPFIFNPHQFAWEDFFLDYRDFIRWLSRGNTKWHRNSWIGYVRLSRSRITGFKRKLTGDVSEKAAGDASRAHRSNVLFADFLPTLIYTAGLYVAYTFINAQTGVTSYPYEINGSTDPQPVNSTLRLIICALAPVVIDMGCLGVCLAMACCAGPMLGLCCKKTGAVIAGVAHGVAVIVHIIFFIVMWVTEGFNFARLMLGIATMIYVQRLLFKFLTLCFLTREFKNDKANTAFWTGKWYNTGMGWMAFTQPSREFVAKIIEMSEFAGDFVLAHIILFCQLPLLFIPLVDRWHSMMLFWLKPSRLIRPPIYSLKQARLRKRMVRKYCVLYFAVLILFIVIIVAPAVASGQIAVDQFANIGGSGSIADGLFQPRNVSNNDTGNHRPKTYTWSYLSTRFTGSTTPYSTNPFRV

sample.smiles | IC50 (µM)
CCOCCOc1c(N2CCN(S(=O)(=O)Cc3ccccc3)CC2)cnn(-c2ccccc2)c1=O | 1.81
CCOCCOc1cc(-c2ccccc2)ccc1N1CCN(S(=O)(=O)Cc2ccccc2)CC1 | 287
CCOCCOc1cc(-c2ccccc2)nnc1N1CCN(S(=O)(=O)Cc2ccccc2)CC1 | 76.7
O=c1c(OC2CCCC2)c(N2CCN(S(=O)(=O)c3ccc4ccccc4c3)CC2)cnn1-c1cccc(Cl)c1 | 0.131
O=c1c(OC2CCCC2)c(N2CCN(S(=O)(=O)CCc3ccccc3)CC2)cnn1-c1cccc(Cl)c1 | 1.47
COCCS(=O)(=O)N1CCN(c2cnn(-c3cccc(Cl)c3)c(=O)c2OC2CCCC2)CC1 | 0.865
O=C(O)CCS(=O)(=O)N1CCN(c2cnn(-c3cccc(Cl)c3)c(=O)c2OC2CCCC2)CC1 | 214
O=c1c(OC2CCCC2)c(N2CCN(S(=O)(=O)C3CCCC3)CC2)cnn1-c1cccc(Cl)c1 | 1.22
O=c1c(-c2ccc(F)cc2)c(N2CCN(S(=O)(=O)Cc3ccccc3)CC2)ccn1-c1ccccc1 | 4.77

====

# test.description: AUC (0 to 6 hrs) in rat at 10 mg/kg, po
# Type: ADME, organism-based
# Design: time < 6 hr, dose 10 mg/kg, route oral
# assay.setup: plasma
Overview of reported AUC(0-t) at 6 h across a group of compounds:

sample.smiles | AUC(0-t) at 6 h (ng·h/mL)
O=C(O)c1ccc(CS(=O)(=O)N2CCN(c3cnn(-c4cccc(Cl)c4)c(=O)c3OC3CCCC3)CC2)cc1 | 130
O=c1c(OC2CCCC2)c(N2CCN(S(=O)(=O)Cc3ccncc3)CC2)cnn1-c1cccc(Cl)c1 | 60
Nc1cccc(CS(=O)(=O)N2CCN(c3cnn(-c4cccc(Cl)c4)c(=O)c3OC3CCCC3)CC2)c1 | 50
Nc1ccccc1CS(=O)(=O)N1CCN(c2cnn(-c3cccc(Cl)c3)c(=O)c2OC2CCCC2)CC1 | 290
Nc1ccc(CS(=O)(=O)N2CCN(c3cnn(-c4cccc(Cl)c4)c(=O)c3OC3CCCC3)CC2)cc1 | 80

====

# Test system: Candida albicans
# test.description: Antifungal activity against Candida albicans C693
# Type: functional
# assay.setup: read-out: MIC100
Measured MIC by item
measured.metric: MIC (µg/mL)

sample.smiles | qualifying.sign | experimental.result
CCOCCOc1c(N2CCN(S(=O)(=O)Cc3ccccc3)CC2)c(C)nn(-c2ccccc2)c1=O | > | 50
CCOC(=O)c1ccc(CS(=O)(=O)N2CCN(c3cnn(-c4cccc(Cl)c4)c(=O)c3OC3CCCC3)CC2)cc1 | = | 6.25
O=c1c(-c2ccc(F)cc2)c(N2CCN(S(=O)(=O)Cc3ccccc3)CC2)cnn1-c1ccccc1 | = | 6.25

====

Hi! I'm sharing some IC50 results obtained with Beta-1,3-glucan synthase (Candida albicans, UniProt O13428).
measured.metric: IC50 (nM)

sample.smiles | experimental.result
O=c1c(OC2CCCC2)c(N2CCN(S(=O)(=O)Cc3ccccc3)CC2)cnn1-c1cccc(Cl)c1 | 378
O=c1c(OC2CCCC2)c(N2CCN(S(=O)(=O)Cc3noc4ccccc34)CC2)cnn1-c1cccc(Cl)c1 | 140
O=c1c(OC2CCCC2)c(N2CCN(S(=O)(=O)c3ccsc3)CC2)cnn1-c1cccc(Cl)c1 | 806
O=c1c(OC2CCCC2)c(N2CCN(S(=O)(=O)C3Cc4ccccc4C3)CC2)cnn1-c1cccc(Cl)c1 | 522
O=c1c(OC2CCCC2)c(N2CCN(S(=O)(=O)CCCc3ccccc3)CC2)cnn1-c1cccc(Cl)c1 | 41300
CCCCCCc1c(N2CCN(S(=O)(=O)Cc3ccccc3)CC2)ncn(-c2cccc(Cl)c2)c1=O | 2480
CCOCCOc1nn(-c2ccccc2)c(=O)c(OCCOCC)c1N1CCN(S(=O)(=O)Cc2ccccc2)CC1 | 7160
CCOCCOc1c(N2CCN(S(=O)(=O)Cc3ccccc3)CC2)c(C)nn(-c2ccccc2)c1=O | 139000

====

The listing below reports IC50 for compounds tested on Beta-1,3-glucan synthase (Candida albicans).

sample.smiles | IC50, µM
O=c1c(OC2CCCC2)c(N2CCN(S(=O)(=O)Cc3ccsc3)CC2)cnn1-c1cccc(Cl)c1 | 0.411
Cn1ccc2ccc(S(=O)(=O)N3CCN(c4cnn(-c5cccc(Cl)c5)c(=O)c4OC4CCCC4)CC3)cc21 | 0.282
CC(C)(C)S(=O)(=O)N1CCN(c2cnn(-c3cccc(Cl)c3)c(=O)c2OC2CCCC2)CC1 | 0.828

====

MIC values for the compounds below.
# System: Candida albicans
# test.description: Antifungal activity against Candida albicans C693
# Assay type: functional
# assay.setup: read-out: MIC100

sample.smiles | MIC
Nc1ccc(CS(=O)(=O)N2CCN(c3cnn(-c4cccc(Cl)c4)c(=O)c3OC3CCCC3)CC2)cc1 | 0.78 µg/mL
CCOCCOc1nn(-c2ccccc2)c(=O)c(OCCOCC)c1N1CCN(S(=O)(=O)Cc2ccccc2)CC1 | > 50 µg/mL
O=c1c(OC2CCCC2)c(N2CCN(S(=O)(=O)CCCc3ccccc3)CC2)cnn1-c1cccc(Cl)c1 | > 50 µg/mL
COCCS(=O)(=O)N1CCN(c2cnn(-c3cccc(Cl)c3)c(=O)c2OC2CCCC2)CC1 | 3.13 µg/mL
O=c1c(OC2CCCC2)c(N2CCN(S(=O)(=O)Cc3ccncc3)CC2)cnn1-c1cccc(Cl)c1 | 0.2 µg/mL
O=c1c(OC2CCCC2)c(N2CCN(S(=O)(=O)Cc3cccc(C(F)(F)F)c3)CC2)cnn1-c1cccc(Cl)c1 | > 50 µg/mL
O=C(O)c1ccc(CS(=O)(=O)N2CCN(c3cnn(-c4cccc(Cl)c4)c(=O)c3OC3CCCC3)CC2)cc1 | > 50 µg/mL
O=c1c(OC2CCCC2)c(N2CCN(S(=O)(=O)Cc3ccc([N+](=O)[O-])cc3)CC2)cnn1-c1cccc(Cl)c1 | 0.78 µg/mL

====

# Test system: Candida albicans
# test.description: Antifungal activity against Candida albicans C693
# Format: functional
# assay.setup: read-out: MIC100
Readings of MIC for the listed molecules

sample.smiles | endpoint.unit | qualifying.sign | MIC
N#Cc1ccc(CS(=O)(=O)N2CCN(c3cnn(-c4cccc(Cl)c4)c(=O)c3OC3CCCC3)CC2)cc1 | mg/L | = | 0.13
O=c1c(OC2CCCC2)c(N2CCN(S(=O)(=O)Cc3noc4ccccc34)CC2)cnn1-c1cccc(Cl)c1 | mg/L | = | 0.78
O=c1c(OC2CCCC2)c(N2CCN(S(=O)(=O)C3CCCC3)CC2)cnn1-c1cccc(Cl)c1 | mg/L | = | 3.13
CCOCCOc1cc(-c2ccccc2)ccc1N1CCN(S(=O)(=O)Cc2ccccc2)CC1 | mg/L | > | 50

====

// reported MIC per item
# Tested on: Candida albicans
# test.description: Antifungal activity against Candida albicans C693
# Format: functional
# assay.setup: read-out: MIC100

sample.smiles | qualifying.sign | MIC [µg/mL]
Nc1ccccc1CS(=O)(=O)N1CCN(c2cnn(-c3cccc(Cl)c3)c(=O)c2OC2CCCC2)CC1 | = | 0.35
O=c1c(-c2ccc(F)cc2)c(N2CCN(S(=O)(=O)Cc3ccccc3)CC2)ccn1-c1ccccc1 | > | 50
O=c1c(OC2CCCC2)c(N2CCN(S(=O)(=O)c3ccc4ccccc4c3)CC2)cnn1-c1cccc(Cl)c1 | = | 33.4
O=c1c(OC2CCCC2)c(N2CCN(S(=O)(=O)C3Cc4ccccc4C3)CC2)cnn1-c1cccc(Cl)c1 | = | 1.56
CCOCCOc1cc(-c2ccccc2)nnc1N1CCN(S(=O)(=O)Cc2ccccc2)CC1 | > | 25
Nc1cccc(CS(=O)(=O)N2CCN(c3cnn(-c4cccc(Cl)c4)c(=O)c3OC3CCCC3)CC2)c1 | = | 3.13
O=c1c(OC2CCCC2)c(N2CCN(S(=O)(=O)Cc3ccc(F)cc3)CC2)cnn1-c1cccc(Cl)c1 | = | 1.56
O=c1c(OC2CCCC2)c(N2CCN(S(=O)(=O)Cc3ccsc3)CC2)cnn1-c1cccc(Cl)c1 | = | 2.1
CCOCCOc1c(N2CCN(S(=O)(=O)Cc3ccccc3)CC2)cnn(-c2ccccc2)c1=O | = | 3.13
Cc1ccc(CS(=O)(=O)N2CCN(c3cnn(-c4cccc(Cl)c4)c(=O)c3OC3CCCC3)CC2)cc1 | = | 0.31
CCCCCCc1c(N2CCN(S(=O)(=O)Cc3ccccc3)CC2)ncn(-c2cccc(Cl)c2)c1=O | > | 25
O=c1c(OC2CCCC2)c(N2CCN(S(=O)(=O)Cc3ccccc3)CC2)cnn1-c1cccc(Cl)c1 | = | 0.39
O=C(O)CCS(=O)(=O)N1CCN(c2cnn(-c3cccc(Cl)c3)c(=O)c2OC2CCCC2)CC1 | > | 50
O=c1c(OC2CCCC2)c(N2CCN(S(=O)(=O)CCc3ccccc3)CC2)cnn1-c1cccc(Cl)c1 | = | 5
O=c1c(OC2CCCC2)c(N2CCN(S(=O)(=O)c3ccccc3)CC2)cnn1-c1cccc(Cl)c1 | = | 3.1
O=c1c(OC2CCCC2)c(N2CCN(S(=O)(=O)Cc3cccc(B(O)O)c3)CC2)cnn1-c1cccc(Cl)c1 | = | 13.4
O=c1c(OC2CCCC2)c(N2CCN(S(=O)(=O)c3ccsc3)CC2)cnn1-c1cccc(Cl)c1 | = | 0.78
